- subject-of-test: N-terminally GST-tagged DLK (catalytic domain amino acid 1-520) (Homo sapiens)
- Construct: N-terminally GST-tagged DLK (catalytic domain amino acid 1-520)
- Sequence (Q12852 1-520): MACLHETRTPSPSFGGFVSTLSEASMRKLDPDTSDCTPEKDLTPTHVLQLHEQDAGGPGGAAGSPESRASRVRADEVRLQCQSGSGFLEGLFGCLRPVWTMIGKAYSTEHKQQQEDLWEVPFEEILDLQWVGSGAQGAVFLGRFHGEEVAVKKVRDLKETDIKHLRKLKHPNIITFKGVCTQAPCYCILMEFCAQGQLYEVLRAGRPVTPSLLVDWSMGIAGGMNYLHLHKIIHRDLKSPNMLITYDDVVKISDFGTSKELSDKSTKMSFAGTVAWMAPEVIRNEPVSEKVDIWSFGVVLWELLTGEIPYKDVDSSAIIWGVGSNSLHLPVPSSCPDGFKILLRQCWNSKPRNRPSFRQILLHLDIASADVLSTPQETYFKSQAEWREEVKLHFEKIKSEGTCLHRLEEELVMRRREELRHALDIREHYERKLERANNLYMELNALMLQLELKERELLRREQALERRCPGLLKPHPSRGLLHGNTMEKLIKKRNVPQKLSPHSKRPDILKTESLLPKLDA
- experimental-details: DLK TR-FRET inhibition assay
- condition-description: 5 nM GST-DLK, 40 nM HIS-MKK4 K131M substrate, 30 μM ATP, 60 minutes at ambient temperature
measure-name: Ki (nM)

compound	experimental-result
Nc1ncc(-c2cc([C@H]3[C@@H]4C[C@@H](N5CCCOCC5)C[C@@H]43)n(CC(F)F)n2)cc1OC(F)(F)F [compound 243]	1.1
CC(C)n1nc(-c2cnc(N)c(C(F)(F)F)c2)cc1[C@H]1[C@@H]2C[C@H](N3CCCOCC3)C[C@@H]21 [compound 100]	1.03
CC(C)n1nc(-c2cnc(N)c(OC(F)F)c2)cc1[C@H]1[C@@H]2C[C@H](OCC(C)(C)O)C[C@@H]21 [compound 168]	2.7
